System: human B cell lymphoma cell line (Karpas422, CVCL_1325)
assay: IC50 on cell growth, Karpas422 (CellTiter-Fluor Cell Viability Assay)
Type: cell-based
conditions: KARPAS-422, Karpas422, RPMI 1640 (11 mM glucose) with 10% serum, 48 h
pIC50: −log10 of the molar value.
measurementLabel: pIC50

(A) N/C(=N/c1cccc2ccccc12)SCCCCCCS/C(N)=N\c1cccc2ccccc12 [reference compound]
(B) c1cnc(NCCCCCCCCCCCCNC2=NCCN2)nc1 [Compound Ia]
## Task Lower value of pIC50 belongs to which: A or B ? Answer format: the label of the selected item.
## Result A
